Reported activation by item:
# test-protocol: endothelial E-selectin upregulation by compounds – imaging, HUVEC, cherry-picked samples, dose response (AID 977605);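 further: signal is the share of imaged cells scored positive for E-selectin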
# measurement-setup: HUVEC E-selectin immunostaining, at 19.5 µM (top of the series), percent of TNF-alpha response over vehicle
outcome-measure: activation (%)

INSERT INTO results (smiles_structure, outcome_measure, readout_value) VALUES
  ('C[C@H](CO)N1C[C@H](C)[C@@H](CN(C)Cc2ccc(C(F)(F)F)cc2)Oc2ccc(N(C)C)cc2CC1=O', 'activation', 0.906),
  ('CC(=O)Nc1ccc(CNc2nc(NC(C)C)nc3cc(-c4ccccc4)sc23)cc1', 'activation', 1.22),
  ('CNC[C@@H]1Oc2ccc(NS(C)(=O)=O)cc2C(=O)N([C@@H](C)CO)C[C@@H]1C', 'activation', -0.177),
  ('CS(=O)(=O)N1CCc2cc(C(=O)NC3CC3)ccc21', 'activation', 0.099),
  ('C[C@H](CO)N1C[C@H](C)[C@H](CN(C)S(=O)(=O)c2cccs2)Oc2c(NC(=O)Nc3ccccc3)cccc2C1=O', 'activation', 1),
  ('C[C@H]1CN([C@@H](C)CO)C(=O)c2cc(NC(=O)Cn3cnnn3)ccc2O[C@@H]1CN(C)Cc1ccc(Oc2ccccc2)cc1', 'activation', -0.201),
  ('Cc1ccsc1CN(C)Cc1nc(C2CC2)no1', 'activation', 1.75),
  ('Cc1noc(C)c1NC(=O)Nc1ccc2c(c1)CC(=O)N([C@H](C)CO)C[C@@H](C)[C@H](CN(C)C(=O)Nc1ccc(F)cc1)O2', 'activation', -0.18);

====

# test-protocol: endothelial E-selectin upregulation by compounds – imaging, HUVEC, cherry-picked samples, dose response (AID 977605);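 further: signal is the share of imaged cells scored positive for E-selectin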
# measurement-setup: HUVEC E-selectin immunostaining, at 19.5 µM (top of the series), percent of TNF-alpha response over vehicle
outcome-measure: activation (%)

INSERT INTO measurements (smiles_structure, outcome_measure, readout_value) VALUES
  ('C[C@@H]1CN([C@@H](C)CO)C(=O)c2cc(NC(=O)Cc3cn(C)c4ccccc34)ccc2O[C@H]1CN(C)Cc1ccc2c(c1)OCO2', 'activation', -0.066),
  ('C[C@H]1CN([C@@H](C)CO)C(=O)c2cc(NC(=O)Nc3ccc(F)cc3)ccc2O[C@H]1CN(C)S(C)(=O)=O', 'activation', 4.69),
  ('COc1cccc(CNC(=O)c2cc3c(cc2Cl)N2CCCCCC2=NS3(=O)=O)c1', 'activation', -0.058),
  ('C[C@H](CO)N1C[C@H](C)[C@@H](CN(C)Cc2ccc(-c3ccccc3)cc2)Oc2c(NC(=O)Nc3cccc4ccccc34)cccc2C1=O', 'activation', 1.82);

====

Reported activation by item:
# test-protocol: endothelial E-selectin upregulation by compounds – imaging, HUVEC, cherry-picked samples, dose response (AID 977605);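 further: signal is the share of imaged cells scored positive for E-selectin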
# measurement-setup: HUVEC E-selectin immunostaining, at 19.5 µM (top of the series), percent of TNF-alpha response over vehicle
outcome-measure: activation (%)

INSERT INTO assay_data (smiles_structure, outcome_measure, readout_value) VALUES
  ('C[C@H](CO)N1C[C@H](C)[C@@H](CN(C)C(=O)NC2CCCCC2)Oc2c(NC(=O)Nc3ccc(F)cc3)cccc2C1=O', 'activation', 0.219),
  ('C[C@H](CO)N1C[C@H](C)[C@H](CN(C)S(=O)(=O)c2ccc(Cl)cc2)Oc2ccc(NC(=O)NC3CCCCC3)cc2C1=O', 'activation', -0.048),
  ('C[C@H](CO)N1C[C@H](C)[C@H](CN(C)C)Oc2ccc(NC(=O)Cc3cn(C)c4ccccc34)cc2C1=O', 'activation', 8.16),
  ('O=C(COC(=O)c1ccccc1NCCO)NNC(=O)c1cccs1', 'activation', -0.279);

====

Reported activation by item:
# test-protocol: endothelial E-selectin upregulation by compounds – imaging, HUVEC, cherry-picked samples, dose response (AID 977605);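 further: signal is the share of imaged cells scored positive for E-selectin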
# measurement-setup: HUVEC E-selectin immunostaining, at 19.5 µM (top of the series), percent of TNF-alpha response over vehicle
outcome-measure: activation (%)

INSERT INTO measurements (compound, outcome_measure, readout_value) VALUES
  ('C[C@@H]1CN([C@H](C)CO)S(=O)(=O)c2ccc(-c3ccccc3)cc2O[C@H]1CN(C)S(C)(=O)=O', 'activation', -0.007),
  ('CCOC(=O)c1sc(NC(=O)CN2C(=O)C3CC=CCC3C2=O)nc1C (centres undefined)', 'activation', 0.503),
  ('COc1ccc(C(=O)Nc2ccc3c(c2)OCCO3)cc1[N+](=O)[O-]', 'activation', 0.055),
  ('COc1ccc(NC(=O)NC2(C(=O)N3CCOCC3)CCCCC2)cc1', 'activation', 0.439),
  ('CC(=O)Nc1ccc(NC(=O)COc2ccc(Cl)cc2Cl)cc1', 'activation', -0.194),
  ('OC(CSc1ccc(F)cc1)CN1CCN(c2ccccc2)CC1 (centres undefined)', 'activation', -0.165),
  ('CNS(=O)(=O)c1ccc(NC(=O)C2CC(=O)N(c3ccc(Cl)cc3)C2)cc1 (centres undefined)', 'activation', -0.269),
  ('Cc1noc(C)c1S(=O)(=O)Nc1ccc2c(c1)C(=O)N([C@@H](C)CO)C[C@@H](C)[C@@H](CN(C)Cc1ccc3c(c1)OCO3)O2', 'activation', -0.115),
  ('C[C@H]1CN([C@@H](C)CO)C(=O)c2cc(NC(=O)CCC(F)(F)F)ccc2O[C@@H]1CN(C)Cc1ccc(C(F)(F)F)cc1', 'activation', 0.111);

====

Reported activation by item:
# test-protocol: endothelial E-selectin upregulation by compounds – imaging, HUVEC, cherry-picked samples, dose response (AID 977605);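 further: signal is the share of imaged cells scored positive for E-selectin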
# measurement-setup: HUVEC E-selectin immunostaining, at 19.5 µM (top of the series), percent of TNF-alpha response over vehicle
Calls of active or inactive are those of the source.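 The calls were made as follows: active = fitted curve reaches 40% activation below the top valid tested dose, in every test run; inconclusive = test runs disagree on the call; inactive = the rest, including effects opposite to the expected direction.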
outcome-measure: activation

INSERT INTO assay_data (molecule, outcome_measure, readout_value) VALUES
  ('C[C@@H]1CN([C@@H](C)CO)C(=O)c2cccc(NC(=O)Nc3ccc4c(c3)OCO4)c2O[C@H]1CN(C)S(=O)(=O)c1ccc(F)cc1', 'activation', '-0.076% (inactive)'),
  ('O=C(Nc1cccc(S(=O)(=O)NCc2ccco2)c1)c1cccc(Cl)c1', 'activation', '0.285% (inactive)'),
  ('CC(=O)NC1C(=O)N(CCN2CCOCC2)c2ccc(F)cc21 (centres undefined)', 'activation', '-0.179% (inactive)'),
  ('Brc1cnc2nc(SCc3nc4ccccc4[nH]3)[nH]c2c1', 'activation', '1.19% (inactive)'),
  ('CC(C)NC(=O)N(C)C[C@@H]1Oc2ccc(NC(=O)Cn3cnnn3)cc2CC(=O)N([C@@H](C)CO)C[C@H]1C', 'activation', '0.965% (inactive)'),
  ('C[C@@H]1CN([C@H](C)CO)C(=O)c2cc(C3=CCCC3)cnc2O[C@H]1CN(C)C(=O)Nc1ccccc1', 'activation', '-0.157% (inactive)'),
  ('C[C@@H]1CN([C@H](C)CO)C(=O)Cc2cc(NS(=O)(=O)c3ccccc3)ccc2O[C@@H]1CN(C)Cc1ccc(C(F)(F)F)cc1', 'activation', '0.93% (inactive)'),
  ('C[C@@H]1CN([C@@H](C)CO)C(=O)c2cccc(NC(=O)CCCCCC(=O)Nc3ccccc3N)c2O[C@H]1CN(C)S(=O)(=O)c1cn(C)cn1', 'activation', '0.292% (inactive)'),
  ('Cc1cc(NC(=O)c2ccccc2F)n(C(C)(C)C)n1', 'activation', '0.21% (inactive)');

====

# test-protocol: endothelial E-selectin upregulation by compounds – imaging, HUVEC, cherry-picked samples, dose response (AID 977605);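 further: signal is the share of imaged cells scored positive for E-selectin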
# measurement-setup: HUVEC E-selectin immunostaining, at 19.5 µM (top of the series), percent of TNF-alpha response over vehicle
outcome-measure: activation (%)

INSERT INTO results (compound, unit_descriptor, readout_value) VALUES
  ('CC1CCC(NC(=O)CCN2C(=O)C3C4C=CC(C4)C3C2=O)CC1 (stereo not drawn)', '%', 0.46),
  ('C[C@H]1CN([C@@H](C)CO)C(=O)c2cc(NC(=O)CCN3CCOCC3)ccc2O[C@@H]1CN(C)Cc1ccncc1', '%', 0.277),
  ('Cc1cc(C(=O)Nc2ccc(Cl)cc2)n(-c2ccccc2)n1', '%', 0.412),
  ('C[C@H]1CN([C@@H](C)CO)C(=O)c2cc(NC(=O)CCN3CCOCC3)ccc2O[C@H]1CN(C)S(=O)(=O)c1ccc(Cl)cc1', '%', -0.234),
  ('C[C@H](CO)N1C[C@H](C)[C@H](CN(C)C(=O)NC2CCCCC2)Oc2ccc(NS(=O)(=O)c3ccccc3)cc2C1=O', '%', -0.156),
  ('O=C(COc1ccc(Cl)cc1)Nc1nnc(S(=O)(=O)N2CCCCCC2)s1', '%', 1.11),
  ('C[C@@H]1CN([C@H](C)CO)C(=O)c2cc(N(C)C)ccc2O[C@H]1CN(C)S(=O)(=O)c1cn(C)cn1', '%', -0.007),
  ('C[C@H](CO)N1C[C@H](C)[C@@H](CN(C)Cc2ccc(Oc3ccccc3)cc2)Oc2ccc(NC(=O)Nc3ccc(C(F)(F)F)cc3)cc2C1=O', '%', 0.27);
